Each recorded value in this set is attributed to PubChem BioAssay AID488.

The reader will find reported inhibition values listed item by item below.
target: Cathepsin B (Homo sapiens) (UniProt P07858)
measurement protocol: cathepsin B inhibitors from pooled compounds, primary screen, biochemical, compound mixtures, AMC fluorescence (AID 488);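 note: 0% = enzyme without compound and 100% = no enzyme blank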
experimental conditions: Purified cathepsin B, AMC dipeptide fluorescence, hits give high values,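 ten-compound pools at 5 µM per compound and 50 µM total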
Screen size: about 62,000 compounds; about 40 (0.06%) were called active. This is one part of a sample in which actives are shown more often than they occur.

Consider the reported inhibition for these molecules:
{"molecule": "O=C(NCCSc1ccccc1)c1ccco1", "result": "5.3% (inactive)"}
{"molecule": "NC(=O)CSC1=Nc2ccccc2C2=NC(CCC(=O)NCc3ccc(F)cc3)C(=O)N12 (stereo unspecified)", "result": "0.205% (inactive)"}
{"molecule": "Cc1ccc(SCCN2C(=O)NC(C)(C)C2=O)cc1", "result": "3.79% (inactive)"}
{"molecule": "CN(CCCC(=O)Nc1nccs1)S(=O)(=O)c1ccc(Cl)cc1", "result": "3.83% (inactive)"}

Query: inhibition; subject: `Cn1c(=O)c2c(nc(N3CCCCCC3)n2CC(=O)c2ccc(Br)cc2)n(C)c1=O`
6.96% (inactive)

Field entry: `CCCNc1ncnc2sc(C)c(C)c12`
2.56% (inactive)

###

target: Cathepsin B (Homo sapiens)
measurement protocol: cathepsin B inhibitors from pooled compounds, primary screen, biochemical, compound mixtures, AMC fluorescence (AID 488);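 note: 0% = enzyme without compound and 100% = no enzyme blank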
experimental conditions: Purified cathepsin B, AMC dipeptide fluorescence, hits give high values,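 ten-compound pools at 5 µM per compound and 50 µM total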
Hit rate of the full screen: of about 62,000 compounds, about 40 (0.06%) were called active. The sample holds actives, similar compounds and a random draw of the others, so the mix is not that of the screen.
measurement kind: inhibition (%)
# number only, unit % dropped from output

Consider the reported inhibition for these molecules:
{"molecule": "CC1(C)Oc2ccc(C(=O)N3CCOCC3)cc2N(CC(=O)Nc2ccccc2)C1=O", "inhibition, %": -0.39}
{"molecule": "COC(=O)C1=C(N)Oc2cc(C)oc(=O)c2C1c1cccnc1 (stereo not drawn)", "inhibition, %": 1.64}
{"molecule": "O=c1[nH]nc(CSCc2ccccc2Cl)[nH]1", "inhibition, %": 4.72}

Query: inhibition; subject: `O=c1c2c(nc3n1CCCCC3)sc1c(O)cccc12`
5.69

Field entry: `NC(=O)C1CCN(C(=O)c2ccc(C(F)(F)F)cc2)CC1`
-1.58

Field entry: `CCN(CC)S(=O)(=O)c1ccc2nc(COC(=O)c3n[nH]c4ccccc34)[nH]c2c1`
3.42

Field entry: `Cn1c(=O)n(C)c2cc(CNc3ccc(N4CCOCC4)c(C(=O)O)c3)ccc21`
-0.23

Field entry: `O=C(NCc1cccnc1)c1ccc(CS(=O)(=O)c2ccc(Br)cc2)o1`
3.93

###

target: Cathepsin B (Homo sapiens) (UniProt P07858)
measurement protocol: cathepsin B inhibitors from pooled compounds, primary screen, biochemical, compound mixtures, AMC fluorescence (AID 488);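 note: 0% = enzyme without compound and 100% = no enzyme blank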
experimental conditions: Purified cathepsin B, AMC dipeptide fluorescence, hits give high values,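 ten-compound pools at 5 µM per compound and 50 µM total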
The whole screen tested about 62,000 compounds, of which about 40 (0.06%) were called active. For the sample, actives were picked, then their nearest neighbours and some compounds at random.
measurement kind: inhibition (%)
# number only, unit % dropped from output

{"compound": "CC1=NCCN1S(=O)(=O)c1ccc(Br)c(C)c1", "measurement kind": "inhibition", "reading unit": "%", "readout number": -3}
{"compound": "COc1cc(=O)[nH]c(=O)n1C(=O)Cc1ccccc1", "measurement kind": "inhibition", "reading unit": "%", "readout number": 3.21}
{"compound": "COc1ccc(-c2nc(CS(=O)CC(=O)N3CCc4ccccc4C3)c(C)o2)cc1 (centres undefined)", "measurement kind": "inhibition", "reading unit": "%", "readout number": 4.29}
{"compound": "CCCC(=O)N1c2ccccc2NC2=C(C(=O)CCC2)C1c1ccc(F)cc1 (centres undefined)", "measurement kind": "inhibition", "reading unit": "%", "readout number": 4.79}
{"compound": "Cc1ccc2cc3cc(C(=O)N4CCCCCC4)oc3nc2c1", "measurement kind": "inhibition", "reading unit": "%", "readout number": 3.89}

API: value(readout=inhibition, system=Cathepsin B (Homo sapiens) (UniProt P07858)) for record `Cc1nc2nc[nH]n2c(=O)c1NC(=O)c1cccc(OCC(C)C)c1`
0.08

Field entry: `Cc1cccc(OCc2nnc(SCn3nnc4ccccc4c3=O)o2)c1`
-0.48

Field entry: COC(=O)c1cc(OC)c(OC)cc1NC(=O)C1CCCO1 (centres undefined)
-0.18

Field entry: CC1CCC(NC(=O)c2ccc(N3CCCC3=O)cc2)CC1 (centres undefined)
-4.06

Field entry: `N#Cc1cccc(NC(=O)CCC2CCCC2)c1`
0.985

Field entry: `O=C(Cn1cc(C(=O)c2cccs2)c2ccccc21)NCc1cccs1`
-1.35

Field entry: `O=C(Cn1c(-c2cncs2)nc2ccccc21)NC1CCCC1`
1.92

Field entry: Cc1ccc(C2c3c(oc4ccc(C)cc4c3=O)C(=O)N2CCCN2CCOCC2)cc1 (centres undefined)
3.25

Field entry: `CCN(CC)C(=O)c1sc(NC(=O)c2ccco2)c(C#N)c1C`
7.73

Field entry: `Cc1ccc(Cn2nnc3c(=O)n(CC(=O)N4CCCCC4)cnc32)cc1`
-4.83

Field entry: `Cc1nc2cc(S(=O)(=O)C(F)(F)F)ccc2s1`
1.09

Field entry: `Cc1noc(C)c1S(=O)(=O)Nc1ccc(C(=O)O)cc1`
5.64

Field entry: `CCOC(=O)N1CCC(C(N)=O)CC1`
7.54

Field entry: COC(C)(C)[C@]12CC(O)(C(C)C)ON1[C@H]1CCCCC1N2O (some centres undefined)
-3.22

Field entry: `O=C(NCCN1CCOCC1)c1ccc2c(c1)ncn2C1CCCC1`
2.62

Field entry: COc1ccc(C(CC(=O)O)NC(=O)Cc2ccccc2)cc1 (centres undefined)
-0.455

###

The reader will find reported inhibition values listed item by item below.
target: Cathepsin B (Homo sapiens) (UniProt P07858)
measurement protocol: cathepsin B inhibitors from pooled compounds, primary screen, biochemical, compound mixtures, AMC fluorescence (AID 488);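 note: 0% = enzyme without compound and 100% = no enzyme blank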
experimental conditions: Purified cathepsin B, AMC dipeptide fluorescence, hits give high values,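 ten-compound pools at 5 µM per compound and 50 µM total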
About 40 (0.06%) of roughly 62,000 compounds were called active. The sample as a whole holds a higher share of actives than the screen did.

Consider the reported inhibition for these compounds:
{"compound": "CCOc1ccc2[nH]c(=O)c(CN(Cc3nnnn3Cc3ccccc3)CC3CCCO3)cc2c1 (stereo not given)", "inhibition": "3.02% (inactive)"}
{"compound": "CC12COC3(C(=O)Nc4ccc(Cl)cn4)CC1CCC32C (stereo not given)", "inhibition": "2.24% (inactive)"}

Query: inhibition; subject: COC(=O)C1C(=O)CC(C)(O)C(C(=O)OC)C1c1ccc2c(c1)OCO2 (stereo not given)
1.84% (inactive)

Field entry: `C=C1c2cc(CC)ccc2NC(=O)N1c1ccc(C)cc1`
5.66% (inactive)

Field entry: `Cn1c2ccccc2c2c(C(=O)N3CCN(c4ccc(F)cc4)CC3)cn(C3CCCC3)c(=O)c21`
4.51% (inactive)

Field entry: `Cc1cc(NC(=O)COn2nnc3ccccc32)no1`
1.15% (inactive)

Field entry: `COc1ccc(NC(=O)Nc2cccc3cccnc23)cc1`
3.29% (inactive)

Field entry: `O=C(CN1C(=O)NC2(CCCCC2)C1=O)NCCC1=CCCCC1`
4.21% (inactive)

Field entry: `COc1cccc(NS(=O)(=O)c2ccc3[nH]cc(C(=O)NCCCOC(C)C)c(=O)c3c2)c1`
5.5% (inactive)

Field entry: Cc1ccc(S(=O)(=O)N2CCN(C(=O)CCC(=O)NC3CCCc4ccccc43)CC2)cc1 (stereo not given)
1.64% (inactive)

###

target: Cathepsin B (Homo sapiens)
measurement protocol: cathepsin B inhibitors from pooled compounds, primary screen, biochemical, compound mixtures, AMC fluorescence (AID 488);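 note: 0% = enzyme without compound and 100% = no enzyme blank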
experimental conditions: Purified cathepsin B, AMC dipeptide fluorescence, hits give high values,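 ten-compound pools at 5 µM per compound and 50 µM total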
Among all 62,000 compounds or so, about 40 (0.06%) were called active. Many of the other results were omitted from the sample, so actives are more common in it than they were.
The reader will find reported inhibition values listed item by item below.
# number only, unit % dropped from output

Consider the reported inhibition for these compounds:
{"compound": "CCn1c(COc2cccc(OC)c2)nnc1SCC(=O)N1CCOCC1", "target": "Cathepsin B (Homo sapiens)", "inhibition / %": 2.62}
{"compound": "COc1cccc(C(CC(=O)NCCN2CCOCC2)NS(=O)(=O)c2ccc(C)cc2)c1OC (stereo not drawn)", "target": "Cathepsin B (Homo sapiens)", "inhibition / %": -2.29}
{"compound": "CSc1ccc(Cl)c(C(=O)OCC(=O)N2CC(C)OC(C)C2)c1 (stereo not drawn)", "target": "Cathepsin B (Homo sapiens)", "inhibition / %": -10.2}

Query: inhibition; subject: `COc1nc(NCc2ccc(Cl)cc2)nc(OC)n1`
6.46

Field entry: `N#CCCn1ncc2ccccc21`
-3.63

Field entry: `CCn1c(=O)cc(SCC(=O)NCc2ccc3c(c2)OCO3)c2ccccc21`
1.53

Field entry: `COC(=O)c1cc(C(=O)CSc2nc(C)cc(C)n2)ccc1O`
1.56

Field entry: `CC(C)c1ccc(-c2nn[nH]n2)cc1`
4.54

Field entry: `CCOc1ccc(NC(=O)CCS(=O)(=O)c2cccc3nsnc23)cc1`
1.87

Field entry: `CCCCN(CC)C(=O)CN(C)S(=O)(=O)c1cccc2nsnc12`
0.445

Field entry: COCCOC(=O)C1=C(C)N=c2s/c(=C\c3cccs3)c(=O)n2C1c1cccs1 (stereo not drawn)
5.37

Field entry: COc1ccc(OCCCC(=O)Nc2nnc(C3CCCO3)s2)cc1 (stereo not drawn)
-2.29

Field entry: `Cn1c(SCC(=O)N2CCOCC2)nnc1-c1ccc(NC(=O)c2ccccc2F)cc1`
-2.64

Field entry: `O=C(COc1ccc(F)cc1)N(CC1=CCS(=O)(=O)C1)c1ccccc1`
-3.79

Field entry: `COc1ccc(OC)c(CNC(=O)CCc2nc(-c3cccs3)no2)c1`
-0.11

Field entry: `C=CCn1c(SCc2csc(C)n2)nc2scc(-c3ccc(C)o3)c2c1=O`
5.42

Field entry: COc1ccccc1C(=O)C(O)c1ccccc1OC (stereo not drawn)
1.43
